Assignment: determine reported protein stability index for the given variants.
B1: CSNK1G1 (parent)
chain: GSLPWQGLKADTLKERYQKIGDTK

Variants of: B1
Protocol description: protein stability index of a GFP-peptide fusion (GPS, HEK-293T) (PSI 1-6); higher = more stable;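 further: lentivirally expressed fusions sorted by FACS into six bins by GFP to DsRed ratio, PSI derived from sequencing read proportions per bin multiplied by bin number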
Experimental context: c terminus: a fixed tail appended
// return just the number, without any unit appended

input: Reported protein stability index for K14D : what is it?
output: 4.02

input: Can you handle T12N next?
output: 4.07

input: Similarly, K9Q ?
output: 3.89
